# assayed.target: Bcl-xL (Homo sapiens)
# procedure.summary: TR-FRET Bcl-xL binding assay (competition with probe F-Bak)
# run.conditions: without human serum, read-out: Bcl-xL Binding Ki
measured.attribute: Ki

The cases that follow already have their Ki on record.
Cc1c(-c2ccc(N3CCc4cccc(C(=O)Nc5nc6ccccc6s5)c4C3)nc2C(=O)O)cnn1CC12CC3(C)CC(C)(C1)CC(OCCNCCS(N)(=O)=O)(C3)C2 : 38 pM
COCCNCCOC12CC3(C)CC(C)(CC(Cn4ncc(-c5ccc(-c6ccc7c(c6)N(C(=O)Nc6nc8ccccc8s6)CCC7)nc5C(=O)O)c4C)(C3)C1)C2 : < 1 pM

Now turn to the next compound.
In: Specify Ki for CNCCOC12CC3(C)CC(C)(CC(Cn4ncc(-c5ccc(-c6ccc7cccc(C(=O)Nc8nc9ccccc9s8)c7c6)nc5C(=O)O)c4C)(C3)C1)C2 and stop.
Out: < 1 pM

* * *

# assayed.target: Bcl-xL (Homo sapiens, UniProt Q07817)
# Sequence (Q07817 whole entry): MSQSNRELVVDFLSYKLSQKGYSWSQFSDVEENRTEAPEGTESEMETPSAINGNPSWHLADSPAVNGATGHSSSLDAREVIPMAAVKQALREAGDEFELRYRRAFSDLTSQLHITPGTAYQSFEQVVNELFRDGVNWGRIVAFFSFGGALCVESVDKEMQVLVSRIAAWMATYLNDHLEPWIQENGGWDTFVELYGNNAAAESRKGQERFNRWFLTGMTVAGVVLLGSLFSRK
# procedure.summary: TR-FRET Bcl-xL binding assay (competition with probe F-Bak)
# run.conditions: without human serum, read-out: Bcl-xL Binding Ki
measured.attribute: Ki (nM)
Quick reminder: number only, in nM, skip the unit.

Cc1c(-c2ccc(N3CCc4cccc(C(=O)Nc5nc6ccccc6s5)c4C3)nc2C(=O)O)cnn1CC12CC3(C)CC(C)(C1)CC(OCCNC1CN(S(C)(=O)=O)C1)(C3)C2 : 0.012

Now turn to the next compound.
In: Specify Ki for Cc1c(-c2ccc(-c3ccc4nccc(C(=O)Nc5nc6ccccc6s5)c4c3)nc2C(=O)O)cnn1CC12CC3(C)CC(C)(C1)CC(OCCN)(C3)C2 and stop.
Out: 0.021

* * *

# assayed.target: Bcl-xL (Homo sapiens)
# procedure.summary: TR-FRET Bcl-xL binding assay (competition with probe F-Bak)
# run.conditions: in the presence of 1% human serum (HS), read-out: Bcl-xL Binding Ki (nM, 1% HS)
measured.attribute: Ki (nM)
Quick reminder: number only, in nM, skip the unit.

The cases that follow already have their Ki on record.
COCCNCCOC12CC3(C)CC(C)(CC(Cn4ncc(-c5ccc(N6CCc7c(OC)ccc(C(=O)Nc8nc9ccccc9s8)c7C6)nc5C(=O)O)c4C)(C3)C1)C2 : 0.051
Cc1c(-c2ccc(N3CCc4c(O)ccc(C(=O)Nc5nc6ccccc6s5)c4C3)nc2C(=O)O)cnn1CC12CC3(C)CC(C)(C1)CC(OCCN)(C3)C2 : 0.23
CNCCOC12CC3(C)CC(C)(CC(Cn4ncc(-c5ccc(-c6[nH]c7c(C(=O)Nc8nc9ccccc9s8)cccc7c6C)nc5C(=O)O)c4C)(C3)C1)C2 : 0.09
CNCCOC12CC3(C)CC(C)(CC(Cn4ncc(-c5ccc(-c6cnc7cccc(C(=O)Nc8nc9ccccc9s8)c7c6)nc5C(=O)O)c4C)(C3)C1)C2 : 0.0259

Now turn to the next compound.
In: Specify Ki for CNCCOC12CC3(C)CC(C)(CC(Cn4ncc(-c5ccc(-c6cnc7[nH]cc(C(=O)Nc8nc9ccccc9s8)c7c6)nc5C(=O)O)c4C)(C3)C1)C2 and stop.
Out: 0.16

* * *

# assayed.target: Bcl-xL (Homo sapiens)
# procedure.summary: TR-FRET Bcl-xL binding assay (competition with probe F-Bak)
# run.conditions: without human serum, read-out: Bcl-xL Binding Ki
# Protocol: For the assay, test compounds were serially diluted in DMSO starting at 50 μM (2× starting concentration; 10% DMSO) and 10 μL transferred into a 384-well plate. […] The samples were then mixed on a shaker for 1 minute and incubated for an additional 2 hours at room temperature. […] Fluorescence was measured on the Envision (Perkin Elmer) using a 340/35 nm excitation filter and 520/525 (F-Bak) and 495/510 nm (Tb-labeled anti-his antibody) emission filters. […]
measured.attribute: Ki (nM)
Quick reminder: number only, in nM, skip the unit.

Cc1c(-c2ccc(N3CCc4scc(C(=O)Nc5nc6ccccc6s5)c4C3)nc2C(=O)O)cnn1CC12CC3(C)CC(C)(C1)CC(OCCN)(C3)C2 : 21
CNC(=O)CCNCCOC12CC3(C)CC(C)(CC(Cn4ncc(-c5ccc(N6CCc7cccc(C(=O)Nc8nc9ccccc9s8)c7C6)nc5C(=O)O)c4C)(C3)C1)C2 : 0.015
CNCCOC12CC3(C)CC(C)(CC(Cn4ncc(-c5ccc(-c6ccc7[nH]cc(C(=O)Nc8nc9ccccc9s8)c7c6)nc5C(=O)O)c4C)(C3)C1)C2 : 0.041

In: Specify Ki for Cc1c(-c2ccc(N3CCc4c(O)ccc(C(=O)Nc5nc6ccccc6s5)c4C3)nc2C(=O)O)cnn1CC12CC3(C)CC(C)(C1)CC(OCCN)(C3)C2 and stop.
Out: 0.02

* * *

# assayed.target: Bcl-xL (Homo sapiens)
# procedure.summary: TR-FRET Bcl-xL binding assay (competition with probe F-Bak)
# run.conditions: in the presence of 1% human serum (HS), read-out: Bcl-xL Binding Ki (nM, 1% HS)
measured.attribute: Ki (nM)
Quick reminder: number only, in nM, skip the unit.

The cases that follow already have their Ki on record.
COCCNCCOC12CC3(C)CC(C)(CC(Cn4ncc(-c5ccc(-c6ccc7cccc(C(=O)Nc8nc9ccccc9s8)c7c6)nc5C(=O)O)c4C)(C3)C1)C2 : 0.1
Cc1c(-c2ccc(N3CCc4cccc(C(=O)Nc5nc6ccccc6s5)c4C3)nc2C(=O)O)cnn1CC12CC3(C)CC(C)(C1)CC(NC(=O)CN)(C3)C2 : 1.1
Cc1c(-c2ccc(N3CCc4cccc(C(=O)Nc5nc6ccccc6s5)c4C3)nc2C(=O)O)cnn1CC12CC3(C)CC(C)(C1)CC(OCCNC1CCN(S(C)(=O)=O)CC1)(C3)C2 : 0.891
Cc1c(-c2ccc(N3CCn4cnc(C(=O)Nc5nc6ccccc6s5)c4C3)nc2C(=O)O)cnn1CC12CC3(C)CC(C)(C1)CC(OCCN)(C3)C2 : 0.049

In: Specify Ki for Cc1c(-c2ccc(N3CCc4cccc(C(=O)Nc5nc6ccccc6s5)c4C3)nc2C(=O)O)cnn1CC12CC3(C)CC(C)(CC(CCCN)(C3)C1)C2 and stop.
Out: 4.36

In: Specify Ki for CNCCOC12CC3(C)CC(C)(CC(Cn4ncc(-c5ccc(-c6ccc7cccc(C(=O)Nc8nc9ncccc9s8)c7c6)nc5C(=O)O)c4C)(C3)C1)C2 and stop.
Out: 0.013

In: Specify Ki for CNCCOC12CC3(C)CC(C)(CC(Cn4ncc(-c5ccc(-c6ccc7cccc(C(=O)Nc8nc9cccnc9s8)c7c6)nc5C(=O)O)c4C)(C3)C1)C2 and stop.
Out: 0.29

In: Specify Ki for CNCCOC12CC3(C)CC(C)(CC(Cn4ncc(-c5ccc(-c6ccc7cncc(C(=O)Nc8nc9ccccc9s8)c7c6)nc5C(=O)O)c4C)(C3)C1)C2 and stop.
Out: 0.083

In: Specify Ki for Cc1c(-c2ccc(N3CCn4c(C(F)(F)F)nc(C(=O)Nc5nc6ccccc6s5)c4C3)nc2C(=O)O)cnn1CC12CC3(C)CC(C)(C1)CC(OCCN)(C3)C2 and stop.
Out: 0.014

In: Specify Ki for Cc1c(-c2ccc(N3CCc4c(C#N)ccc(C(=O)Nc5nc6ccccc6s5)c4C3)nc2C(=O)O)cnn1CC12CC3(C)CC(C)(C1)CC(OCCN)(C3)C2 and stop.
Out: 6.8

In: Specify Ki for CNCCOC12CC3(C)CC(C)(CC(Cn4ncc(-c5ccc(-c6ccc7cccc(C(=O)Nc8nc9ccccc9s8)c7c6)nc5C(=O)O)c4C)(C3)C1)C2 and stop.
Out: 0.22

* * *

# assayed.target: Bcl-xL (Homo sapiens, UniProt Q07817)
# procedure.summary: TR-FRET Bcl-xL binding assay (competition with probe F-Bak)
# run.conditions: in the presence of 1% human serum (HS), read-out: Bcl-xL Binding Ki (nM, 1% HS)
Listed here: items and their measured Ki.
Quick reminder: number only, in nM, skip the unit.

The cases that follow already have their Ki on record.
Cc1c(-c2ccc(N3CCc4scc(C(=O)Nc5nc6ccccc6s5)c4C3)nc2C(=O)O)cnn1CC12CC3(C)CC(C)(C1)CC(OCCN)(C3)C2 : 309
CNCCOC12CC3(C)CC(C)(CC(Cn4ncc(-c5ccc(N6CCc7c(OC)ccc(C(=O)Nc8nc9ccccc9s8)c7C6)nc5C(=O)O)c4C)(C3)C1)C2 : 0.14
CNCCOC12CC3(C)CC(C)(CC(Cn4ncc(-c5ccc(-c6ccc7nccc(C(=O)Nc8nc9ccccc9s8)c7c6)nc5C(=O)O)c4C)(C3)C1)C2 : 0.94
Cc1c(-c2ccc(N3CCc4cccc(C(=O)Nc5nc6ccccc6s5)c4C3)nc2C(=O)O)cnn1CC12CC3(C)CC(C)(C1)CC(OCCNCCC(N)=O)(C3)C2 : 0.365
CNCCOC12CC3(C)CC(C)(CC(Cn4ncc(-c5ccc(-c6cc7cccc(C(=O)Nc8nc9ccccc9s8)c7[nH]6)nc5C(=O)O)c4C)(C3)C1)C2 : 0.12
Cc1c(-c2ccc(-c3cnc4cccc(C(=O)Nc5nc6ccccc6s5)c4c3)nc2C(=O)O)cnn1CC12CC3(C)CC(C)(C1)CC(OCCN)(C3)C2 : 0.07

Now turn to the next compound.
In: Specify Ki for Cc1c(-c2ccc(-c3ccc4nccc(C(=O)Nc5nc6ccccc6s5)c4c3)nc2C(=O)O)cnn1CC12CC3(C)CC(C)(C1)CC(OCCN)(C3)C2 and stop.
Out: 1.1
